Each recorded value in this set is attributed to patent US20260217797A1.

- measured_target: SARS-CoV-2 wild type spike protein (on reporter virus particles) (SARS-CoV-2, UniProt P0DTC2 14-1273)
- measurement_protocol: cell-based or functional assay
measure_name: PsV IC50, Test 2

Query: For the binder A-6 (antibody, V domains shown) VH: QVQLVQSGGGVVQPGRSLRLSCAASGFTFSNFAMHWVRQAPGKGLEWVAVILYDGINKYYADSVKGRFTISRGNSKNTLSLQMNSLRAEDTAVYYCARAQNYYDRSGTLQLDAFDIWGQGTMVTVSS VL: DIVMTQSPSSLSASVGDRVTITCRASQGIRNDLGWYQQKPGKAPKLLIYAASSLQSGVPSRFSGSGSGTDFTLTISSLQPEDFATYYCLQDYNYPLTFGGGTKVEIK , what PsV IC50, Test 2 is on record?
Reply: 2.45 nM
